- system.under.test: wild-type ALK2 (aa172-499) (Homo sapiens (Human), UniProt Q04771)
- Sequence (Q04771 172-499): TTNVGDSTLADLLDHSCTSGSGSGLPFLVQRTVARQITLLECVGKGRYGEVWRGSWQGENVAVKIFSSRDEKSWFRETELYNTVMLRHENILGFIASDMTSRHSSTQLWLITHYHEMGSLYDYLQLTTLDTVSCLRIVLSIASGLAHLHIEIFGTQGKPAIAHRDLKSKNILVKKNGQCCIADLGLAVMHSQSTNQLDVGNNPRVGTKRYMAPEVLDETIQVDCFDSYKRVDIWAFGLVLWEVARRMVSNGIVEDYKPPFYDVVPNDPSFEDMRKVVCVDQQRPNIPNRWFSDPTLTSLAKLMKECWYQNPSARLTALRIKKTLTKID
- test.name: ADPGlo biochemical autophosphorylation assay, ALK2
- test.settings: 15 μm ATP, 60 min at 32° C.
measurement.name: IC50 (nM)

Find the recorded IC50 belonging to `Nc1ncc(-c2cccc(C(=O)N3CCOCC3)c2)cc1C(=O)NC1CCCCC1` and report it.
2400

Find the recorded IC50 belonging to `CN1CCN(CCNC(=O)c2ccc(-c3cnc(N)c(C(=O)NC4CCCCC4)c3)cc2)CC1` and report it.
82

1: Nc1ncc(-c2ccc([C@]34C[C@H]3CN(CCC(F)(F)F)C4)cc2)cc1C(=O)N[C@H]1CC[C@H](O)CC1
2: Cc1cc(CN2CCC[C@H]2C)ccc1-c1cnc(N)c(C(=O)N[C@H]2CC[C@](C)(O)CC2)c1
3: C[C@@H](c1ccc(-c2cnc(N)c(C(=O)N[C@H]3CC[C@H](O)CC3)c2)cc1)N1CC2(COC2)C1
4: [2H][C@]1(O)CC[C@H](NC(=O)c2cc(-c3ccc([C@]45C[C@H]4CN(C(C)C)C5)cc3)cnc2N)CC1
5: CC(C)N1C[C@@H]2C[C@]2(c2ccc(-c3cnc(N)c(C(=O)N[C@H]4CC[C@@H](O)CC4)c3)cc2)C1
List from greatest to least IC50. Reply: labels, ordered per the request.
2, 4, 5, 1, 3
(2: 880 nM, 4: 37 nM, 5: 22 nM, 1: 12 nM, 3: 5 nM)
